Reference source for all entries: patent US20220324835A1

Target: Cbl-b (Homo sapiens)
Experiment: Cbl-b activity assay (Cbl-b inhibition assay), TR-FRET of Cbl-b interaction with UbcH5B-Ub
Type: biochemical
Conditions: assay buffer with 100 mM NaCl, 60 nM Src kinase; read-out: Cbl-b activity IC50
Description: The ability of candidate compounds to inhibit Cbl-b activity was measured by monitoring the interaction of Cbl-b with UbcH5B-Ub in the presence of the candidate compound. Fluorescently labeled UbcH5B-Ub was prepared by conjugating ubiquitin (Ub), labeled at its N-terminus with Bodipy-Fluorescein, to UbcH5B, an E2 enzyme, harboring a cysteine to lysine mutation at position 85. […]
READOUT_KIND: IC50

Reference set, count: 8
COMPOUND | TARGET_UNDER_TEST | READOUT_VALUE
Cn1cnnc1CC1(c2cccc(N3Cc4c(cc(CN5CCC6(CC5)CC6)cc4C(F)(F)F)C3=O)c2)COC1 | Cbl-b (Homo sapiens) | < 100 nM
C[C@H](Sc1nncn1C)c1cccc(NC(=O)c2cc(C(F)(F)F)cc(Cl)n2)c1 | Cbl-b (Homo sapiens) | 1000 to 3000 nM
Cc1cc2c(c(C3CC3)n1)CN(c1cccc(C3(C(F)(F)c4nncn4C)COC3)c1)C2=O | Cbl-b (Homo sapiens) | 301 to 1000 nM
C[C@H](Sc1nncn1C)c1cccc(NC(=O)c2ccc(Cl)c(C(F)(F)F)n2)c1 | Cbl-b (Homo sapiens) | 100 to 300 nM
C[C@H](Sc1nncn1C)c1cccc(NC(=O)c2cc(C(=O)N3CCC(O)CC3)ccn2)c1 | Cbl-b (Homo sapiens) | 1000 to 3000 nM
C[C@H](Cc1nncn1C)c1cccc(N2Cc3c(ccnc3C(F)(F)F)C2=O)c1 | Cbl-b (Homo sapiens) | 100 to 300 nM
CC(Cc1nocc1CO)c1cccc(N2Cc3c(cccc3C(F)(F)F)C2=O)c1 (stereo not shown) | Cbl-b (Homo sapiens) | 1000 to 3000 nM
C[C@H](Cc1nncn1C)c1cccc(NC(=O)c2ccnc3ccnn23)c1 | Cbl-b (Homo sapiens) | < 100 nM

Qu. State the recorded IC50 for this entry: Cn1cnnc1CC1(c2cccc(N3Cc4c(cc(CN5CCCC(F)(F)CC5)cc4C(F)(F)F)C3=O)c2)COC1
Ans. < 100 nM

Qu. State the recorded IC50 for this entry: Cn1cnnc1CC1(c2cccc(N3Cc4c(cc(CN5CC(C(=O)O)C5)cc4C(F)(F)F)C3=O)c2)COC1
Ans. < 100 nM

----------
biological target: Cbl-b (residues 36-427) (Homo sapiens, UniProt Q13191)
Sequence (Q13191 36-427): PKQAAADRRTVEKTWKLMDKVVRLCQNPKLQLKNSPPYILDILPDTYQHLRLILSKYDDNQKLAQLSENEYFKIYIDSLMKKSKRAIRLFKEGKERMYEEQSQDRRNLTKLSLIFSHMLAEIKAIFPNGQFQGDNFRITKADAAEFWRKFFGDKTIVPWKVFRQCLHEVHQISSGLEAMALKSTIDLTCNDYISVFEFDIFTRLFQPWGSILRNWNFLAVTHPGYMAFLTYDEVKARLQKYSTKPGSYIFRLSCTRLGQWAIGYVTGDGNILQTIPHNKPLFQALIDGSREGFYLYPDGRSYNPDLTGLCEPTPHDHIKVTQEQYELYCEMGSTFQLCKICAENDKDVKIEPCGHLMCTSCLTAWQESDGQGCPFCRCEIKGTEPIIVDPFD
Known Kd of a selection of compounds

COMPOUND | READOUT_VALUE
COc1nc(C(=O)Nc2cccc([C@H](C)Sc3nncn3C)c2)cc2ccccc12 | 301 to 1000 nM
C[C@H](Cc1nncn1C)c1cccc(N2Cc3c(cc([C@H]4CCCNC4)cc3C(F)(F)F)C2=O)c1 | 100 to 300 nM
C[C@H](Cc1nncn1C)c1cccc(NC(=O)c2cc(C(=O)N3CCC(C)(O)CC3)ccn2)c1 | 3000 to 10000 nM

Qu. Could you share what Kd was measured for Cc1ccc(C(=O)Nc2cccc([C@@H](C)Cc3nccn3C)c2)nc1C1CC1 , tested on Cbl-b (residues 36-427) (Homo sapiens, UniProt Q13191)?
Ans. 1000 to 3000 nM

Qu. Could you share what Kd was measured for C[C@H](Cc1nncn1C)c1cc(NCCO)nc(N2Cc3c(cccc3C(F)(F)F)C2=O)c1 , tested on Cbl-b (residues 36-427) (Homo sapiens, UniProt Q13191)?
Ans. 100 to 300 nM

Qu. Could you share what Kd was measured for Cc1cccc2nc(C(=O)Nc3cccc([C@H](C)Sc4nncn4C)c3)ccc12 , tested on Cbl-b (residues 36-427) (Homo sapiens, UniProt Q13191)?
Ans. 1000 to 3000 nM

Qu. Could you share what Kd was measured for C[C@H](Cc1nncn1C)c1cccc(NC(=O)c2cc(C(=O)N3CC(S(C)(=O)=O)C3)ccn2)c1 , tested on Cbl-b (residues 36-427) (Homo sapiens, UniProt Q13191)?
Ans. 3000 to 10000 nM

Qu. Could you share what Kd was measured for CCNc1cc(C(C)Sc2nncn2C)cc(N2Cc3c(cccc3C(F)(F)F)C2=O)n1 (centres unmarked) , tested on Cbl-b (residues 36-427) (Homo sapiens, UniProt Q13191)?
Ans. 301 to 1000 nM

Qu. Could you share what Kd was measured for C[C@H](Cc1nncn1C)c1cccc(NC(=O)c2cccc(C(F)(F)F)n2)c1 [Compound 183a] , tested on Cbl-b (residues 36-427) (Homo sapiens, UniProt Q13191)?
Ans. 100 to 300 nM

Qu. Could you share what Kd was measured for C[C@H](Sc1nncn1C)c1cccc(NC(=O)c2cc(C(=O)N3CCC(O)CC3)ccn2)c1 , tested on Cbl-b (residues 36-427) (Homo sapiens, UniProt Q13191)?
Ans. 3000 to 10000 nM

Qu. Could you share what Kd was measured for C[C@H](Cc1nncn1C)c1cc(N[C@@H]2CCOC2)nc(N2Cc3c(cccc3C(F)(F)F)C2=O)c1 (stereo in doubt) , tested on Cbl-b (residues 36-427) (Homo sapiens, UniProt Q13191)?
Ans. 100 to 300 nM

----------
Known fold induction at 1 µM of a selection of compounds
tested on: T-cell; experiment: CD25 cell surface staining on T-cells co-stimulated with anti-CD3 and anti-CD28 antibody (Biological Example 2); format: cell-based, human; conditions: Homo sapiens, T-cell, fold change over baseline; 1 μM Cbl-b inhibitor; primary human total T-cells; read-out: CD25 staining Anti-CD3/Anti-CD28 stimulation

Reference set, count: 3
COMPOUND | READOUT_VALUE
Cc1ccc(C(=O)Nc2cccc([C@@H](C)Cc3nccn3C)c2)nc1C1CC1 [Compound 331] | < 1
C[C@H](Cc1nncn1C)c1cccc(NC(=O)c2ccnc3ccnn23)c1 [Compound 328] | 1.01 to 1.3
C[C@H](Cc1nncn1C)c1cccc(NC(=O)c2cc(C(=O)N3CC(O)C(F)(F)C3)ccn2)c1 (stereo partly drawn) [Compound 243] | < 1

Qu. State the recorded fold induction at 1 µM for this entry: C[C@H](Sc1nncn1C)c1cccc(NC(=O)c2cc(C(=O)N3C[C@H](O)C[C@@H]3C)ccn2)c1 [Compound 151]
Ans. 1.01 to 1.3

Qu. State the recorded fold induction at 1 µM for this entry: CC(C)Nc1cc([C@H](C)Cc2nncn2C)cc(N2Cc3c(cccc3C(F)(F)F)C2=O)n1 [Compound 353]
Ans. 1.01 to 1.3

Qu. State the recorded fold induction at 1 µM for this entry: C[C@H](Cc1nncn1C)c1cccc(N2Cc3c(ccnc3C3CC3)C2=O)c1 [Compound 257]
Ans. 1.01 to 1.3

----------
Biological target: Cbl-b (Homo sapiens, UniProt Q13191)
Experiment: Cbl-b activity assay (Cbl-b inhibition assay), TR-FRET of Cbl-b interaction with UbcH5B-Ub
Format: biochemical
Conditions: assay buffer with 100 mM NaCl, 60 nM Src kinase; read-out: Cbl-b activity IC50
Procedure: The ability of candidate compounds to inhibit Cbl-b activity was measured by monitoring the interaction of Cbl-b with UbcH5B-Ub in the presence of the candidate compound. Fluorescently labeled UbcH5B-Ub was prepared by conjugating ubiquitin (Ub), labeled at its N-terminus with Bodipy-Fluorescein, to UbcH5B, an E2 enzyme, harboring a cysteine to lysine mutation at position 85. […]
pIC50: −log10 of the molar value.
Known pIC50 of a selection of compounds

COMPOUND | pIC50
C[C@@H]1CN(Cc2cc3c(c(C(F)(F)F)c2)CN(c2cccc(C4(Cc5nncn5C)COC4)c2)C3=O)C[C@H](C)O1 | > 7.00
Cn1cnnc1CC1(c2cccc(NC(=O)c3cc(CN4CC[C@H](F)C4)cc(C4CC4)n3)c2)COC1 | > 7.00
C[C@H]1CN(Cc2cc3c(c(C(F)(F)F)c2)CN(c2cccc(C4(Cc5nncn5C)COC4)c2)C3=O)CCO1 [Example 663a] | > 7.00

From here, focus on the item given below.
Qu. Could you share what pIC50 was measured for Cn1cnnc1C(F)(F)[C@](C)(F)c1cccc(N2Cc3c(cc(CN4CC(C#N)C4)cc3C(F)(F)F)C2=O)c1 , tested on Cbl-b (Homo sapiens, UniProt Q13191)?
Ans. 6.52 to 7.00

----------
Known fold induction at 8 µM of a selection of molecules
test system: T-cell; assay: CD25 cell surface staining on T-cells stimulated with anti-CD3 antibody alone (Biological Example 2); type: cell-based, human; conditions: T-cell; fold change over baseline; 8 μM Cbl-b inhibitor; primary human total T-cells; read-out: CD25 staining Anti-CD3 stimulation

Reference set, count: 5
MOLECULE | READOUT_VALUE
Cc1cc(C(=O)Nc2cccc(C3(Cc4nncn4C)COC3)c2)nc(C2CC2)n1 | > 1
Cn1cnnc1CC1(c2cccc(NC(=O)c3nc4c(C(F)(F)F)cccc4[nH]3)c2)COC1 | > 1
COc1nc(C(=O)Nc2cccc([C@H](C)Sc3nncn3C)c2)cc2ccccc12 | 0.801 to 1
C[C@H](Cc1nncn1C)c1cc(NCCO)nc(N2Cc3c(cccc3C(F)(F)F)C2=O)c1 | > 1
C[C@H](Sc1nnc[nH]1)c1cccc(NC(=O)c2cc3ccccc3cn2)c1 | < 0.6

From here, focus on the item given below.
Qu. State the recorded fold induction at 8 µM for this entry: CC1OCC1Oc1cc([C@H](C)Cc2nncn2C)cc(N2Cc3c(cccc3C(F)(F)F)C2=O)n1 (stereo partly drawn)
Ans. 0.601 to 0.8
